Target: HIV-1 Env of isolate APV 13 (subtype B) (HIV-1)
Assay: cell-based or functional assay
READOUT LABEL: IC50 (µg/mL), pseudovirus neutralization
Lab book: enter the figure in µg/mL, no units written.

Record request: IC50 (µg/mL), pseudovirus neutralization value, item PGT-130 (antibody, V domains shown) VH: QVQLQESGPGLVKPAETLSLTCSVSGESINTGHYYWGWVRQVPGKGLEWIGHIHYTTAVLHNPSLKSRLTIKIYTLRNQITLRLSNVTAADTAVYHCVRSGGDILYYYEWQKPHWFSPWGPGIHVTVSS VL: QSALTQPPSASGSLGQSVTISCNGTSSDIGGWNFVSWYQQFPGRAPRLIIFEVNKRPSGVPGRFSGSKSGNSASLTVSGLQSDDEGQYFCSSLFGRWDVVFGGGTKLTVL
0.052

Follow-up item: PGT-128 (antibody, V domains shown) VH: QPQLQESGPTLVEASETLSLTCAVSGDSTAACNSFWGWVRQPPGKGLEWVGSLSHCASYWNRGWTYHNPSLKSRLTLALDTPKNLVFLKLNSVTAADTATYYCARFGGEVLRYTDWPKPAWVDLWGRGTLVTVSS VL: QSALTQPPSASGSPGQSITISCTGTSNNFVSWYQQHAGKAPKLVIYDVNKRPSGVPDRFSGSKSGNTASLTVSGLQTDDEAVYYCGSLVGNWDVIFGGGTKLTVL
0.008

What do we get for PGT-135 (antibody, V domains shown) VH: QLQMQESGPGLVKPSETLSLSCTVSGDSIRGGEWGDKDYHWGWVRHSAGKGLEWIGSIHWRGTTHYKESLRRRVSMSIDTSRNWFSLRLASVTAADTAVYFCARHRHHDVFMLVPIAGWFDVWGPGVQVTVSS VL: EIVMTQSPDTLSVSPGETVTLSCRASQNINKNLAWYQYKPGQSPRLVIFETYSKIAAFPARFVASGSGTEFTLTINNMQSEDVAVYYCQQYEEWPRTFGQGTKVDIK ?
0.716

And for PGT-131 (antibody, V domains shown) VH: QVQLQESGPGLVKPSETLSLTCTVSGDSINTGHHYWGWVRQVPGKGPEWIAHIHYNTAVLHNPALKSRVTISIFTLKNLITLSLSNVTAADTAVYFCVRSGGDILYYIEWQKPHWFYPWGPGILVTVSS VL: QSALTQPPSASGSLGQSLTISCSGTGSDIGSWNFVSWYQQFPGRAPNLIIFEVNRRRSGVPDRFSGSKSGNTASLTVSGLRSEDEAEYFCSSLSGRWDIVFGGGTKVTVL ?
0.189
